- SYSTEM: T1, human Ror2 (human, UniProt Q01974 34-403, limits assumed)
- T1 construct: also called hROR2; receptor tyrosine kinase-like orphan receptor 2
- T1 sequence (Q01974 34-403 limits assumed): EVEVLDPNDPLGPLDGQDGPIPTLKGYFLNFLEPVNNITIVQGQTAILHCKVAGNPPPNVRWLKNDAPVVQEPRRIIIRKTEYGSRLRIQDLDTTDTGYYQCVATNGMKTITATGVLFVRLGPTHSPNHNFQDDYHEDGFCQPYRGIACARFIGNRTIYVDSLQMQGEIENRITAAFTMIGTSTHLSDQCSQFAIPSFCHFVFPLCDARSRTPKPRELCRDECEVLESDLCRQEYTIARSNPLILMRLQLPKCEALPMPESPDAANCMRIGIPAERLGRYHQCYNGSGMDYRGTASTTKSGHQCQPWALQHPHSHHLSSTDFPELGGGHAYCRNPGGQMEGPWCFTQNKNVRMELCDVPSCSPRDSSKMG
- ASSAY_DETAILS: ELISA, human Ror2, pH 7.4; note: unit not given here
VALUE_TYPE: Affinity ELISA pH 7.4
One number for each entry.

Incoming: I'd like to know its Affinity ELISA pH 7.4. The binder in question is LC-G049H (antibody, V domains shown) VH: EVQLQQSGPELVKPGASVKISCKTSGYTFTEYTMHWMKQSHRKSLEWIGGINTNNGGTGYNQKFKGKATLTVDKSSSTAYMELRSLTSEDSAVYFCARGSLYSYGNSYFDYWGQGTLVTVSS VL: QIVLTQSPAIMSASPGEKVTITCSATSSVSYMHWFQQKPGTSPKLWIYHTSNLASGVPARFSGSGSGTSYSLTISRMEAEDAATYYCQQRSSYPFTFGQGTKVEIK
Outgoing: 0.118
